LC50 MW by entry:
Tested on: Maize weevil [Sitophilus Zeamais (Motschulsky)]
Test: Maize weevil test (MW)
Format: in vivo
Conditions: adult weevils, treated corn seeds, 48 hours, percent in solution

Known LC50 MW results, listed for orientation:
[[record]]
molecule = "CC(C)C(=Nc1ccc(F)c(Cl)c1)OCc1cccc(Oc2ccc(F)cc2)c1 [Compound 89]"
quantity_kind = "LC50 MW"
value = "0.005%"

[[record]]
molecule = "CC(C)C(=Nc1cccc(Br)c1)OCc1cccc(Oc2ccc(Cl)cc2)n1 [Compound 557]"
quantity_kind = "LC50 MW"
value = "> 0.01%"

[[record]]
molecule = "CC(C)(C)C(=Nc1ccc(Cl)cc1)OCc1cccc(Oc2ccccc2)c1 [Compound 30]"
quantity_kind = "LC50 MW"
value = "> 0.01%"

[[record]]
molecule = "FC(F)(F)c1ccc(N=C(OCc2cccc(Oc3ccccc3)c2)C(Cl)Cl)cc1 [Compound 61]"
quantity_kind = "LC50 MW"
value = "> 0.01%"

[[record]]
molecule = "Fc1ccc(Oc2cccc(COC(=Nc3ccc(F)c(Cl)c3)C3CC3)c2)cc1 [Compound 116]"
quantity_kind = "LC50 MW"
value = "> 0.01%"

[[record]]
molecule = "CC(C)C(=Nc1ccc(F)c(Br)c1)OCc1ccc(F)c(Oc2ccc(Cl)cc2)c1 [Compound 298]"
quantity_kind = "LC50 MW"
value = "0.008%"


Now take the following molecule into account.
[ask] Returns the measured LC50 MW for the input molecule. Input: CCC(=Nc1ccc(Cl)cc1)OCc1cccc(Oc2ccccc2)c1 [Compound 11]
[reply] > 0.01%

###

LC50 MW by entry:
Test system: Maize weevil [Sitophilus Zeamais (Motschulsky)]
Assay: Maize weevil test (MW)
Type: in vivo
Details: adult weevils, treated corn seeds, 48 hours, percent in solution

[[record]]
compound = "CC(C)C(=Nc1ccc(F)c(F)c1)OCc1ccc(F)c(Oc2ccc(Cl)cc2)c1 [Compound 295]"
assayed_system = "Maize weevil [Sitophilus Zeamais (Motschulsky)]"
quantity_kind = "LC50 MW"
value = "0.0053%"

[[record]]
compound = "CC(C)C(=Nc1ccc(F)c(Cl)c1)OCc1cccc(OCc2ccc(F)cc2)c1 [Compound 490]"
assayed_system = "Maize weevil [Sitophilus Zeamais (Motschulsky)]"
quantity_kind = "LC50 MW"
value = "> 0.01%"

[[record]]
compound = "CC(C)C(=Nc1cccc(C(F)(F)F)c1)OCc1cc(Oc2ccc(Cl)cc2)ccn1 [Compound 509]"
assayed_system = "Maize weevil [Sitophilus Zeamais (Motschulsky)]"
quantity_kind = "LC50 MW"
value = "> 0.01%"

[[record]]
compound = "CC(C)C(=Nc1ccc(Cl)cc1)OCc1cccc(Oc2ccccc2)n1 [Compound 553]"
assayed_system = "Maize weevil [Sitophilus Zeamais (Motschulsky)]"
quantity_kind = "LC50 MW"
value = "> 0.01%"

[[record]]
compound = "CC(C)C(=Nc1ccccc1Br)OCc1cccc(Oc2ccccc2)c1 [Compound 132]"
assayed_system = "Maize weevil [Sitophilus Zeamais (Motschulsky)]"
quantity_kind = "LC50 MW"
value = "> 0.01%"


[ask] Provide the documented LC50 MW with Maize weevil [Sitophilus Zeamais (Motschulsky)] as the system for CC(C)C(=Nc1ccc(C(F)(F)F)cc1Cl)OCc1ccc(F)c(Oc2ccccc2)c1 [Compound 428]
[reply] > 0.01%

###

LC50 MW by entry:
Tested on: Maize weevil [Sitophilus Zeamais (Motschulsky)]
Assay: Maize weevil test (MW)
Format: in vivo
Conditions: adult weevils, treated corn seeds, 48 hours, percent in solution

Known LC50 MW results, listed for orientation:
[[record]]
molecule = "CC(C)C(=Nc1c(F)c(F)cc(F)c1F)OCc1cccc(Oc2ccc(F)cc2)c1"
assayed_system = "Maize weevil [Sitophilus Zeamais (Motschulsky)]"
quantity_kind = "LC50 MW"
value = "> 0.01%"

[[record]]
molecule = "CC(=Nc1ccccc1)OCc1cccc(Oc2ccccc2)c1"
assayed_system = "Maize weevil [Sitophilus Zeamais (Motschulsky)]"
quantity_kind = "LC50 MW"
value = "> 0.01%"

[[record]]
molecule = "CC(C)C(=Nc1cccc(C(F)(F)F)c1)OCc1cccc(Oc2ccc(F)cc2)c1"
assayed_system = "Maize weevil [Sitophilus Zeamais (Motschulsky)]"
quantity_kind = "LC50 MW"
value = "> 0.01%"


[ask] Provide the documented LC50 MW with Maize weevil [Sitophilus Zeamais (Motschulsky)] as the system for `Fc1ccc(COC(=Nc2ccc(C(F)(F)F)cc2)C2CC2)cc1Oc1ccccc1`
[reply] < 0.01%
